Where do these numbers come from? They come from ChEMBL document CHEMBL4043144.

Kindly state inhibition for each of the entries shown.
# Tested on: Human rhinovirus sp.
# assay explanation: Inhibition of recombinant N-terminal His-tagged HRV 3C protease expressed in Escherichia coli at 10 uM preincubated for 15 mins followed by LEVLFQGPSK substrate addition after 45 mins by reverse-phase HPLC analysis relative to control
One number for each entry, in %.

> print(dat)
                              smiles.record  recorded.value
1  CC1(C)O[C@@H](C(=O)Nc2nc3ccccc3s2)[C@H](C(=O)N2CCN(Cc3ccccc3)CC2)O1            18.8

// batch mode: one inhibition value per listed entry
1. Cc1cccc(CN2CCN(C(=O)[C@@H]3OC(C)(C)O[C@H]3C(=O)Nc3nc4ccccc4s3)CC2)c1
2. CC1(C)O[C@@H](C(=O)Nc2nc3ccccc3s2)[C@H](C(=O)N2CCN(c3ccccc3)CC2)O1
3. COc1cccc(NCCNC(=O)[C@H]2OC(C)(C)O[C@@H]2C(=O)Nc2nc3ccccc3s2)c1

Outgoing:
20.2
69
43.6
